Target: M4 muscarinic receptor (Homo sapiens, UniProt P08173)
Construct: expressed in transfected cells; host or cells: CHO (M4-CHO)
Sequence (P08173 1-479): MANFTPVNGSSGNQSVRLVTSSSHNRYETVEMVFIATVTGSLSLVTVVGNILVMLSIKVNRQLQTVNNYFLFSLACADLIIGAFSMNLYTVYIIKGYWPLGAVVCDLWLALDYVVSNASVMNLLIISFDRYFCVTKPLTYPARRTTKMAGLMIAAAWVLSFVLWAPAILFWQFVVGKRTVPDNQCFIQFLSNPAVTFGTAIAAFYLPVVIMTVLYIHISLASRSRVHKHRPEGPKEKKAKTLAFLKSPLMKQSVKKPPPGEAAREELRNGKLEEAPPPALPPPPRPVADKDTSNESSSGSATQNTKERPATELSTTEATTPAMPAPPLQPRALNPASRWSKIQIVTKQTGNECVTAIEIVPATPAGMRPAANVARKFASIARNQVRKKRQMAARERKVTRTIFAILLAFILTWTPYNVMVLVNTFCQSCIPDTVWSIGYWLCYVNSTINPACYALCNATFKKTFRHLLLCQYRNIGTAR
Assay: Functional mobilization of intracellular calcium (FLIPR) in M4-CHO cells
Type: cell-based
Settings: M4 receptor, calcium mobilization; read-out: M4 Efficacy
The entries below are paired with their reported Emax.

O=C(O[C@@H]1CCOC1)N1CC2(CCN(C3CC4CCC(C3)N4C(=O)O[C@@H]3CCOC3)CC2)c2cc(F)ccc21 (stereo partly shown)	< 65%
O=C(OC1CCCC1)N1C2CCC1CC(N1CCC3(CCc4ccccc43)CC1)C2 (stereo not shown)	< 65%
Cc1ccc2c(c1)C1(CCN([C@@H]3C[C@@H]4CC[C@@H]3C4)CC1)CN2	< 65%

# returns recorded Emax (system: M4 muscarinic receptor (Homo sapiens, UniProt P08173)) for CCOC(=O)N1CCC(CN2CCC3(CC2)CN(C(C)=O)c2ccc(F)cc23)CC1
65 to 85%

Would you mind doing CCOC(=O)N1CCC(N2CCC3(CC2)CN(C(=O)c2ccccc2F)c2ccc(F)cc23)CC1 as well?
< 65%

Would you mind doing CCOC(=O)N1CCC(N2CCC3(CC2)CN(C(C)=O)c2ccc(C)cc23)CC1 as well?
< 65%

====

Target: M1 muscarinic receptor (Homo sapiens, UniProt P11229)
Construct: expressed in transfected cells; host or cells: CHO (M1-CHO)
Sequence (P11229 1-460): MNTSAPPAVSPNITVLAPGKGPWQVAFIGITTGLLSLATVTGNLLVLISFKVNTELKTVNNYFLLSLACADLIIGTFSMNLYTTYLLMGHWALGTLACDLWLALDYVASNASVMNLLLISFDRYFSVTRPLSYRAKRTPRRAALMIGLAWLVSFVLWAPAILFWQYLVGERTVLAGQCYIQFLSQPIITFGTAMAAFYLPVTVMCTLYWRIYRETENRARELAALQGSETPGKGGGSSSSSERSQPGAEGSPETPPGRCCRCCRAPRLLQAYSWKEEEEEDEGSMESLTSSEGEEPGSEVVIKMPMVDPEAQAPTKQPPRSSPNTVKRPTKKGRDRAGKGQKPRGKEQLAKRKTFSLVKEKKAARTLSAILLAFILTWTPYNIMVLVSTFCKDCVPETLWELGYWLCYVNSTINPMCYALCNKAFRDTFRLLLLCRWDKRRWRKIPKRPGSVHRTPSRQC
Test: Functional mobilization of intracellular calcium (FLIPR) in M1-CHO cells
Type: cell-based
Conditions: M1 receptor, calcium mobilization; read-out: M1 Efficacy
The entries below are paired with their reported Emax.

// below: answered compounds
O=C(O[C@@H]1CCOC1)N1CC2(CCN(C3CC4CCC(C3)N4C(=O)O[C@@H]3CCOC3)CC2)c2cc(F)ccc21 (stereo partly shown)	65 to 85%
CCCc1ccc2c(c1)C1(CCN(C3CCN(C(=O)OCC)CC3)CC1)CN2C(C)=O	65 to 85%
CC(=O)N1CC2(CCN(C3CCN(C(=O)OCCF)CC3)CC2)c2cc(F)ccc21	> 85%

Please look at the following compound next.
Recorded Emax of CCOC(=O)N1CCC(N2CCC3(CC2)CN(C(C)=O)c2ccc(CC)cc23)CC1 , please.
> 85%
